# TARGET OR SYSTEM: SARS-CoV-2 spike receptor-binding domain (RBD) (SARS-CoV-2, UniProt P0DTC2 319-541)
# PROTOCOL DETAILS: indirect ELISA on coated RBD ('ELISA affinity')
READOUT NAME: pIC50
One number for each entry, as −log10 of the molar value.

// for each binder below, give its pIC50
1. Nb62 (VHH) VHH: HVQLVESGGGLVQAGGSLRLTCAASGRTFSSSTMDMGWFRQAPGKEREFVAVDAWNDGRTYYADSVKGRFTISRDNAKNTLYLQMNSLKPGDTAVYYCHAVDVSVGGDYWGQGTQVTVSS
2. Nb100 (VHH) VHH: EVQLVESGGGLVQAGGSLRLSCAASGLTFSSYNMGWFRQAPGKEREFVAFIRWSGTSTYYADSVKGRFTISRDTAKNTVYLQMNSLKLEDTAVYYCAATSRTMIHTSQTMRINWDYWGQGTQVTVSS
3. Nb37 (VHH) VHH: QVQLVESGGGLVQTGGSLRLSCAASGRTFSNYVMGWFRQAPGKEREFVSSIEWNSENTFYANSVKGRFTISRDNAKNTVYLQMNSLKAEDTAVYYCAADRGSSYYYTRASEYTYWGQGTQVTVSS
4. Nb105 (VHH) VHH: HVQLVESGGGLVQAGGSLRLSCAVSGRTFSTYGMAWFRQAPGKERDFVATITRSGETTLYADSVKGRFTISRDNAKNTVYLQMNSLKIEDTAVYYCAVRRDSSWGYSRDLFEYDYWGQGTQVTVSS

Output:
1. 7.07
2. 8.98
3. 9.42
4. 9.59
